Taken from patent US5889013A.

ASSAY_NOTES: Cytotoxicity to MT-4 cells not infected with HIV (MTT method)
Format: cell-based
EXPERIMENTAL_CONDITIONS: human; MT-4 cells not infected with HIV, 6 days, 37° C., MTT; read-out: 50% cytotoxic concentration to MT-4 cells
With a cut-off of 30 µM, any CC50 at 144 h strictly below it is called 1; any CC50 at 144 h meeting it or above is called 0.

Req: Take the compound CCc1c([Se]c2cc(C)cc(C)c2)n(CCCc2ccccc2)c(=O)[nH]c1=O [Compound 74] and say whether its CC50 at 144 h is less than 30 µM.
Resp: 1

* * *

ASSAY_NOTES: Cytotoxicity to MT-4 cells not infected with HIV (MTT method)
Assay type: cell-based
EXPERIMENTAL_CONDITIONS: human; MT-4 cells not infected with HIV, 6 days, 37° C., MTT; read-out: 50% cytotoxic concentration to MT-4 cells
Protocol: In RPMI 1640 culture medium supplemented with 10% heat-inactivated fetal bovine serum, 2 mM of L-glutamine, 100 U/mL of penicillin G and 100 μg/mL of streptomycin, MT-4 cells (HTLV-1 transformed T4-cell line) at a concentration of 1×10^4 /well in a flat-bottom, microtiter plate were infected with 500 TCID50 of HIV-1 (HTLV-IIIB strain). […] And also, the cytotoxicity of sample to MT-4 cells not infected with HIV was assessed in parallel with its antiviral activity under the same way as above.
QUANTITY_MEASURED: CC50 at 144 h (µM)
The figure you give is taken to be in µM; do not add the unit.

Some solved entries appear below for comparison.
> print(dat)
                               smiles.entry  quantity.measured  result.unit  data.value
1  CCOCn1c([Se]c2cccc(C)c2)c(C(C)C)c(=O)[nH]c1=O      CC50 at 144 h           µM        29.2
2  Cc1cccc([Se]c2c(C(C)C)c(=O)[nH]c(=S)n2COCc2ccccc2)c1      CC50 at 144 h           µM          30
3  CCOCn1c([Se]c2cc(C)cc(C)c2)c(C(C)C)c(=O)[nH]c1=O      CC50 at 144 h           µM        29.2
4  CCOCn1c([Se]c2cc(F)cc(F)c2)c(CC)c(=O)[nH]c1=O      CC50 at 144 h           µM        30.6
5  CC(C)c1c([Se]c2ccccc2)n(COCc2ccccc2)c(=S)[nH]c1=O      CC50 at 144 h           µM        30.2

The value of CC50 at 144 h measured for the compound CCOCn1c([Se]c2ccccc2)c(C(C)C)c(=O)[nH]c1=S turned out to be 30.1

Lab note: Cc1cc(C)cc([Se]c2c(C(C)C)c(=O)[nH]c(=O)n2COCCO)c1 gave CC50 at 144 h of 29.1

According to the records, this compound Cc1cc(C)cc([Se]c2c(C(C)C)c(=O)[nH]c(=S)n2COCc2ccccc2)c1 displays CC50 at 144 h of 30.9

Value of CC50 at 144 h reported for the compound Cc1cc(C)cc([Se]c2c(C(C)C)c(=O)[nH]c(=O)n2COCc2ccccc2)c1 is 30.2

Lab note: CCOCn1c([Se]c2cccc(C)c2)c(C(C)C)c(=O)[nH]c1=S gave CC50 at 144 h of 30.6

* * *

ASSAY_NOTES: Cytotoxicity to MT-4 cells not infected with HIV (MTT method)
Assay type: cell-based
EXPERIMENTAL_CONDITIONS: human; MT-4 cells not infected with HIV, 6 days, 37° C., MTT; read-out: 50% cytotoxic concentration to MT-4 cells
Label yes (1) when CC50 at 144 h < 30 µM; otherwise no (0).

Use the examples below as a reference point.
> print(dat)
                                   molecule  assigned.category
1  CCOCn1c([Se]c2cc(C)cc(C)c2)c(CC)c(=O)[nH]c1=O [Compound 30]            yes (1)
2  CCCCn1c([Se]c2ccccc2)c(C(C)C)c(=O)[nH]c1=O [Compound 81]            yes (1)

From here, focus on the item given below.
Req: # TODO verify CC50 at 144 h < 30 µM strictly for this molecule: CCc1c([Se]c2cccc(C)c2)n(COCCO)c(=S)[nH]c1=O [Compound 2]
Resp: no (0)

* * *

# CC50 at 144 h listing for each entry below
ASSAY_NOTES: Cytotoxicity to MT-4 cells not infected with HIV (MTT method)
Assay type: cell-based
EXPERIMENTAL_CONDITIONS: human; MT-4 cells not infected with HIV, 6 days, 37° C., MTT; read-out: 50% cytotoxic concentration to MT-4 cells
Record the value in µM, omitting the unit from your answer.

> print(dat)
                                   compound  quantity.measured  data.value
1  Cc1cccc([Se]c2c(C(C)C)c(=O)[nH]c(=O)n2COCc2ccccc2)c1 [Compound 53]      CC50 at 144 h        30.8
2  CC(C)c1c([Se]c2ccccc2)n(COCc2ccccc2)c(=O)[nH]c1=O [Compound 52]      CC50 at 144 h        29.4

// below: CC50 at 144 h requested for another compound
So, Cc1cccc([Se]c2c(C(C)C)c(=O)[nH]c(=O)n2COCCO)c1 [Compound 11] ? Its CC50 at 144 h was 30.5
